Known pIC50 of a selection of molecules
- target-entity: various mutants of kinase EGFR (BaF3 cell lines stably transfected with kinase) (Homo sapiens, UniProt P00533, T790M, form not given)
- Construct: other: BaF3 cells stably transfected with EGFR Δ19Del/T790M; MTS, 48 h; other: BaF3 cell line stably transfected with EGFR Δ19Del/T790M; MTS, 48
- Sequence (P00533 with tags, fused parts or gaps DEL746-750/T790M, form open): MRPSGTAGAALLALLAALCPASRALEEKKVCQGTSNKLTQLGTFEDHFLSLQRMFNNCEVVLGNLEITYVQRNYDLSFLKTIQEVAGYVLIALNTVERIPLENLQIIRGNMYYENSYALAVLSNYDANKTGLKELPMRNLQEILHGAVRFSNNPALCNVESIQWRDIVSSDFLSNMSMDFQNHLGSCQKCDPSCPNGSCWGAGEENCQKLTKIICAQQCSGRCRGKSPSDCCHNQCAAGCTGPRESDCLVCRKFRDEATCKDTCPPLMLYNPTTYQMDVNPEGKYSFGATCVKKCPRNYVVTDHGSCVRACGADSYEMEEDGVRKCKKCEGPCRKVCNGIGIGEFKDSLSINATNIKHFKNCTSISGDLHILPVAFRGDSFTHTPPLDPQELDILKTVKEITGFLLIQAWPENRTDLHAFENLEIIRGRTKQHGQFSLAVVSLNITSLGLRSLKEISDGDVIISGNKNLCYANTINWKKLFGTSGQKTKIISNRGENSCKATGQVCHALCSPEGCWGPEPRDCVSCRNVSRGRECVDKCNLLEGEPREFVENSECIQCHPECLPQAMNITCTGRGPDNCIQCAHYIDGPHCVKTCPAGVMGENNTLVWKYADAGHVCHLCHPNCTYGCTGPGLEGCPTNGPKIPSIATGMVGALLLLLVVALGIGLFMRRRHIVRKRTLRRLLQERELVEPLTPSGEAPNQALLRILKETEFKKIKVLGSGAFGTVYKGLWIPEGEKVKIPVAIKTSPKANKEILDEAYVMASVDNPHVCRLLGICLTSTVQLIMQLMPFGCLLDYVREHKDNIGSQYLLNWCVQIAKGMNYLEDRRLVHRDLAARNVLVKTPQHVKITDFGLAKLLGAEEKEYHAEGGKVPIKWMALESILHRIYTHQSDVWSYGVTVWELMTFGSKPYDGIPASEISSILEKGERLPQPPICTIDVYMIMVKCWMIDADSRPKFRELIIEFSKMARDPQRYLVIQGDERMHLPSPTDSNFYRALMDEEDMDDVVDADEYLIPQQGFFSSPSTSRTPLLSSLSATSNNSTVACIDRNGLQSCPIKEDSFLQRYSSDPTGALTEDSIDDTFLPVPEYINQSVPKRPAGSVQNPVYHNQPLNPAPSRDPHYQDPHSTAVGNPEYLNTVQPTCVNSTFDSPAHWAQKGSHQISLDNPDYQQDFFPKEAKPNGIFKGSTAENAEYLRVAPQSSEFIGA
- assay-details: Growth inhibitory activity of compounds on BaF3 cell lines stably transfected with kinase (MTS, 48 h)
- Assay type: cell-based
- run-conditions: BaF3 cells stably transfected with EGFR Δ19Del/T790M, read-out: IC50, growth inhibition, Δ19Del/T790M
pIC50: −log10 of the molar value.

{"chem-smiles": "CN1CCN(C2CCN(c3ccc(Nc4ncc(Br)c(Nc5ccc6nccnc6c5N(C)S(C)(=O)=O)n4)c(OC(F)(F)F)c3)CC2)CC1", "endpoint-value": "6.30 to 7.30"}

Quick one: give measured pIC50 for `CCOc1cc(N2CCN(C)CC2)ccc1Nc1ncc(Br)c(Nc2ccc3nccnc3c2N(C)S(C)(=O)=O)n1` 6.30 to 7.30

Provide only the value of recorded pIC50 for `CCN(c1c(Nc2nc(Nc3cc(CC4CC4)c(N4CCC(N5CCN(C)CC5)CC4)cc3OC)ncc2Cl)ccc2nccnc12)S(C)(=O)=O` 6.30 to 7.30
